Overview of recorded melting point for various compounds

| Compound | Attribute Measured | Result |
| --- | --- | --- |
| COc1cc2c(cc1OC)CN(c1nc(Cl)nc3cc(OC)c(OC)cc13)CC2 | melting point | 183 to 186 °C |
| COc1cc(C(=O)N2Cc3cccn3Cc3ccccc32)ccc1[N+](=O)[O-] | melting point | 191 to 192 °C |
| Nc1nc2nc(SCc3ccccc3)nc(Cl)c2s1 | melting point | 217 to 218 °C |
| Cc1cc(F)ccc1C(=C(C=CC(O)CC(=O)CC(=O)OC(C)(C)C)c1nnnn1C)c1ccc(F)cc1C (configuration not stated) | melting point | 65 to 72 °C |
| CN1C(=O)[C@H](NC(=O)CCc2ccc(Cl)cc2Cl)N=C(c2ccccc2)c2ccccc21 | melting point | 92 to 95 °C |

Enquiry: Value lookup for melting point; key = `COc1ccc(C(O)(C(F)(F)F)C(F)(F)F)cc1C=CC(=O)O`
Return: 184 to 186 °C

Enquiry: `CC(C)(C)c1cc(CCC(=O)O)n(Cc2ccc(C(F)(F)F)cc2Cl)n1` ?
Return: 128 to 129 °C

Enquiry: `CC(C)(C)CC(=O)Nc1ccc2oc3c(c2c1)CCCC3` ?
Return: 164 to 165 °C

Enquiry: `CON=C(C)c1c(C)oc2c(-n3c(=O)cc(C(F)(F)F)n(C)c3=O)c(F)cc(Cl)c12` ?
Return: 65 to 67 °C

Enquiry: `C[C@@H](n1cnc2cc(Sc3ccccc3)ccc2c1=O)[C@](O)(Cn1cncn1)c1ccc(F)cc1F` ?
Return: 84 to 87 °C

Enquiry: CCC1Cc2c(C)c(O)c(C)c(C)c2O1 (racemic) ?
Return: 73 to 75 °C

Enquiry: `Cc1ccc(C(C)C)c2oc(SCCN3CCN(CC(=O)Nc4c(C(C)C)cccc4C(C)C)CC3)nc12` ?
Return: 133 to 134 °C

---

Overview of recorded melting point for various compounds

| Compound | melting point |
| --- | --- |
| CCC(C)(C)NC(=O)c1ccc(S(=O)(=O)Cl)c(OC)c1 | 104 °C |
| Cc1cc(C)n(C)c1C(=O)C(C#N)C(=O)Nc1ccccc1 (stereo not drawn) | 106 to 107 °C |

Kindly consider the entry below.
Enquiry: Value lookup for melting point; key = O=C1N(Cc2ccccc2OC(F)(F)F)c2ccccc2C12COc1cc3c(cc12)OCO3 (stereo not drawn)
Return: 88 to 91 °C

---

Attribute Measured: melting point

Enquiry: Value lookup for melting point; key = `CC(C)(C)C(=O)Cn1ncc(-c2ccc(S(C)(=O)=O)cc2)c(-c2ccc(F)cc2)c1=O`
Return: 168 to 170 °C

Enquiry: O=C(Cc1ccncc1)NC(Cc1c[nH]c2ccccc12)C(O)CCc1cc(C(F)(F)F)cc(C(F)(F)F)c1 (stereo not drawn) ?
Return: 213 to 214 °C

Enquiry: `CCN(CC)C(=O)C=Cc1ccc(Cl)c(Cl)c1` ?
Return: 60.7 °C

---

Overview of recorded melting point for various compounds

The cases that follow already have their melting point on record.
| Compound | melting point |
| --- | --- |
| COC(=O)COc1ccc2cc(-c3cnc(Cc4ccc5ccccc5c4)o3)ccc2c1 | 147 to 149 °C |
| COC(=O)c1cc(N)cc(C=NO)c1 | 160 to 162 °C |
| COC(=O)c1cc(C(=O)OC)cc(-c2ccc(C=O)cc2)c1 | 166 to 169 °C |
| NC(=O)CN1CCC(C(=O)N2CCN3C(=O)OC(c4ccccc4)(c4ccccc4)C3C2)CC1 (stereo not drawn) | 253 to 255 °C |
| O=[N+]([O-])C(F)(CO)CO | 86 to 87 °C |
| Cc1nn(CC(F)(F)COCc2ccccc2)c(-c2ccc(F)cc2)c1-c1ccc2c(c1)NC(=O)CO2 | 154 to 155 °C |
| O=S(Cc1ccc(Cl)cc1)C1CCC(C=CC=Cc2ccc(C(F)(F)F)cc2)CC1 (stereo not drawn) | 212 to 214 °C |

Kindly consider the entry below.
Enquiry: Value lookup for melting point; key = `CCCCCCCNC(=O)Nc1ccc(N2CCCC2)cc1C(=O)NCC1CCN(C(c2ccccc2)c2ccccc2)CC1`
Return: 182 to 184 °C
